# TARGET_OF_ASSAY: GST-Nef (HIV-1 NL4-3 Nef containing a T71R change) (HIV-1 NL4-3) [GST: P08515]
// label = T if inhibition at an equimolar probe:competitor ratio is not less than 40%, otherwise F

Ask: Dear colleague, could you confirm whether GST-RRT.m3 (Hck-derived RRT-SH3 domain selected on NefR90, RT-loop EAWSPL) (from UniProt P08631 62-118) (designed binder) has inhibition at an equimolar probe:competitor ratio at or above 40%?
Result: F

Ask: // query: GST-RRT.m1 (Hck-derived RRT-SH3 domain selected on NefR90, RT-loop QGFLDQ) (from UniProt P08631 62-118) (designed binder)
Result: F

Ask: What do you have for GST-RRT.C4 (Hck-derived RRT-SH3 domain, RT-loop DSWFPW) (from UniProt P08631 62-118) (designed binder) ?
Result: F

###

# TARGET_OF_ASSAY: GST-Nef (HIV-1 NL4-3 Nef containing a T71R change) (HIV-1 NL4-3) [GST: P08515]
# EXPERIMENT: competition plate assay: unlabeled GST-SH3 vs biotinylated Hck-SH3 probe (66 nM) on immobilized GST-Nef
Class membership depends on ratio of competitor per probe giving 50% inhibition (1:x competitor:probe) alone; the intervals are bottom = under 20, middle = from 20 up to 30, top = 30 and over

Reference set (4 entries):
INSERT INTO measurements (substance, assigned_category) VALUES
  ('GST-RRT.A2 (Hck-derived RRT-SH3 domain, RT-loop FSWSDT) (from UniProt P08631 62-118) (designed binder)', 'bottom'),
  ('GST-RRT.B2 (Hck-derived RRT-SH3 domain, RT-loop DSPFSF) (from UniProt P08631 62-118) (designed binder)', 'middle'),
  ('GST-RRT.A4 (Hck-derived RRT-SH3 domain, RT-loop YSWSDM) (from UniProt P08631 62-118) (designed binder)', 'bottom'),
  ('GST-RRT.D1 (Hck-derived RRT-SH3 domain, RT-loop SSFYSS) (from UniProt P08631 62-118) (designed binder)', 'middle');

Ask: Which ratio of competitor per probe giving 50% inhibition (1:x competitor:probe) band matches GST-RRT.B1 (Hck-derived RRT-SH3 domain, RT-loop WSPFPS) (from UniProt P08631 62-118) (designed binder) ?
Result: middle

Ask: Lookup GST-RRT.m2 (Hck-derived RRT-SH3 domain selected on NefR90, RT-loop NAFLPS) (from UniProt P08631 62-118) (designed binder)
Result: bottom

Ask: Another substance to check: GST-RRT.A1 (Hck-derived RRT-SH3 domain, RT-loop VSWSPD) (from UniProt P08631 62-118) (designed binder)
Result: top

###

The next entries give measured inhibition at an equimolar probe:competitor ratio for GST-NefR90 (HIV-1 Nef carrying an F90R mutation) (HIV-1) [GST: P08515].
Answers are plain numbers, in %.

Worked cases, inhibition at an equimolar probe:competitor ratio given:
INSERT INTO assay_data (substance, target_of_assay, measurement) VALUES
  ('GST-RRT.B1 (Hck-derived RRT-SH3 domain, RT-loop WSPFPS) (from UniProt P08631 62-118) (designed binder)', 'GST-NefR90 (HIV-1 Nef carrying an F90R mutation) (HIV-1) [GST: P08515]', 9),
  ('GST-RRT.B2 (Hck-derived RRT-SH3 domain, RT-loop DSPFSF) (from UniProt P08631 62-118) (designed binder)', 'GST-NefR90 (HIV-1 Nef carrying an F90R mutation) (HIV-1) [GST: P08515]', 26),
  ('GST-RRT.A1 (Hck-derived RRT-SH3 domain, RT-loop VSWSPD) (from UniProt P08631 62-118) (designed binder)', 'GST-NefR90 (HIV-1 Nef carrying an F90R mutation) (HIV-1) [GST: P08515]', 52);

Ask: Any idea what inhibition at an equimolar probe:competitor ratio came out for GST-RRT.C2 (Hck-derived RRT-SH3 domain, RT-loop YSFFPW) (from UniProt P08631 62-118) (designed binder) on GST-NefR90 (HIV-1 Nef carrying an F90R mutation) (HIV-1) [GST: P08515]?
Result: 13

###

Parameter 'readout' = inhibition at an equimolar probe:competitor ratio; parameter 'system' = GST-Nef (HIV-1 NL4-3 Nef containing a T71R change) (HIV-1 NL4-3) [GST: P08515].
One number for each entry, in %.

Known results for substances:
INSERT INTO measurements (substance, unit_annotation, measurement) VALUES
  ('GST-RRT.D1 (Hck-derived RRT-SH3 domain, RT-loop SSFYSS) (from UniProt P08631 62-118) (designed binder)', '%', 45),
  ('GST-RRT.A4 (Hck-derived RRT-SH3 domain, RT-loop YSWSDM) (from UniProt P08631 62-118) (designed binder)', '%', 34),
  ('GST-RRT.B4 (Hck-derived RRT-SH3 domain, RT-loop FSPFDW) (from UniProt P08631 62-118) (designed binder)', '%', 41);

Hello, I would appreciate it if you could give inhibition at an equimolar probe:competitor ratio for each entry below.
1. GST-RRT.C1 (Hck-derived RRT-SH3 domain, RT-loop TSPFPW) (from UniProt P08631 62-118) (designed binder)
2. GST-RRT.B2 (Hck-derived RRT-SH3 domain, RT-loop DSPFSF) (from UniProt P08631 62-118) (designed binder)
3. GST-RRT.B6 (Hck-derived RRT-SH3 domain, RT-loop YSPFSW) (from UniProt P08631 62-118) (designed binder)

Result:
39
22
51

Quick one: give me inhibition at an equimolar probe:competitor ratio for each item below, same order please.
1. GST-RRT.C2 (Hck-derived RRT-SH3 domain, RT-loop YSFFPW) (from UniProt P08631 62-118) (designed binder)
2. GST-RRT.B1 (Hck-derived RRT-SH3 domain, RT-loop WSPFPS) (from UniProt P08631 62-118) (designed binder)

Result:
[20, 41]

###

The reader will find inhibition at an equimolar probe:competitor ratio measurements below, all made with GST-NefR90 (HIV-1 Nef carrying an F90R mutation) (HIV-1) [GST: P08515].

// solved cases for inhibition at an equimolar probe:competitor ratio follow
INSERT INTO measurements (substance, measurement) VALUES
  ('GST-RRT.C3 (Hck-derived RRT-SH3 domain, RT-loop YSDFPW) (from UniProt P08631 62-118) (designed binder)', '20%'),
  ('GST-RRT.A4 (Hck-derived RRT-SH3 domain, RT-loop YSWSDM) (from UniProt P08631 62-118) (designed binder)', '44%'),
  ('GST-RRT.B6 (Hck-derived RRT-SH3 domain, RT-loop YSPFSW) (from UniProt P08631 62-118) (designed binder)', '14%');

List inhibition at an equimolar probe:competitor ratio for every entry below, keeping the order given.
1. GST-RRT.A2 (Hck-derived RRT-SH3 domain, RT-loop FSWSDT) (from UniProt P08631 62-118) (designed binder)
2. GST-RRT.m1 (Hck-derived RRT-SH3 domain selected on NefR90, RT-loop QGFLDQ) (from UniProt P08631 62-118) (designed binder)
3. GST-RRT.C1 (Hck-derived RRT-SH3 domain, RT-loop TSPFPW) (from UniProt P08631 62-118) (designed binder)
4. GST-RRT.D1 (Hck-derived RRT-SH3 domain, RT-loop SSFYSS) (from UniProt P08631 62-118) (designed binder)
5. GST-RRT.C4 (Hck-derived RRT-SH3 domain, RT-loop DSWFPW) (from UniProt P08631 62-118) (designed binder)
6. GST-RRT.m4 (Hck-derived RRT-SH3 domain selected on NefR90, RT-loop ESYSEW) (from UniProt P08631 62-118) (designed binder)
7. GST-RRT.m3 (Hck-derived RRT-SH3 domain selected on NefR90, RT-loop EAWSPL) (from UniProt P08631 62-118) (designed binder)

Result:
1: 53%; 2: 73%; 3: < 5%; 4: 17%; 5: 19%; 6: 46%; 7: 62%

Items follow; give inhibition at an equimolar probe:competitor ratio for each.
1. GST-RRT.m2 (Hck-derived RRT-SH3 domain selected on NefR90, RT-loop NAFLPS) (from UniProt P08631 62-118) (designed binder)
2. GST-RRT.B4 (Hck-derived RRT-SH3 domain, RT-loop FSPFDW) (from UniProt P08631 62-118) (designed binder)

Result:
73%
37%

###

Exercise: for every item that follows, state its recorded Kd.
# TARGET_OF_ASSAY: GST-Nef (HIV-1 NL4-3 Nef containing a T71R change) (HIV-1 NL4-3) [GST: P08515]
# EXPERIMENT: calculated from competition with Hck-SH3 probe on immobilized Nef, based on KD 250 nM of Hck-SH3/Nef

INSERT INTO results (substance, measurement) VALUES
  ('GST-RRT.B6 (Hck-derived RRT-SH3 domain, RT-loop YSPFSW) (from UniProt P08631 62-118) (designed binder)', '7 nM'),
  ('GST-RRT.A1 (Hck-derived RRT-SH3 domain, RT-loop VSWSPD) (from UniProt P08631 62-118) (designed binder)', '7 nM');

Ask: Can you look up the measured Kd of GST-RRT.C1 (Hck-derived RRT-SH3 domain, RT-loop TSPFPW) (from UniProt P08631 62-118) (designed binder) for me?
Result: 7 nM

All values here come from patent US6794144.
